Cited source for all entries: patent EP4574818A1

Tested on: Phyllotreta striolata
Assay: Efficacy test against Phyllotreta striolata (sprayed bok-choy seedling)
Format: in vivo
Conditions: 168 h, read-out: mortality against the adults of Phyllotreta striolata
readout: mortality at 125 ppm

>  <compound>
O=C([N-][n+]1ccccc1)c1cc(Cl)nc(Oc2ccc(OC(F)(F)C(F)OC(F)(F)C(F)(F)C(F)(F)OC(F)(F)F)cc2)c1 (stereo not shown)

>  <target-or-test-system>
Phyllotreta striolata

>  <readout>
mortality at 125 ppm

>  <value-observed>
≥ 80%

$$$$

Give the measured mortality at 125 ppm for O=C([N-][n+]1ccccc1)c1cc(Cl)nc(Oc2ccc(OC(F)(F)C(F)OC(F)(F)C(F)(F)C(F)(F)F)cc2)c1 (stereo not shown)
≥ 80%

Give the measured mortality at 125 ppm for CCn1c[n+]([N-]C(=O)c2cc(Cl)nc(Oc3ccc(OC(F)(F)C(F)OC(F)(F)C(F)(F)C(F)(F)OC(F)(F)F)cc3)c2)cn1 (stereo not shown)
≥ 80%

Give the measured mortality at 125 ppm for CCn1c[n+]([N-]C(=O)c2cc(Cl)nc(Oc3ccc(OC(F)(F)C(F)OC(F)(F)C(F)(F)C(F)(F)F)cc3)c2)cn1 (stereo not shown)
≥ 80%
